Assay system CbMip (Coxiella burnetii); read-out recorded as Ki.
observation type: Ki

>>> reported_value("O=C(NCCOC(=O)[C@@H]1CCCCN1S(=O)(=O)Cc1ccccc1)c1cccnc1")
"18 µM"
>>> reported_value("O=C(O[C@@H](Cc1ccccc1)C(=O)NCc1cccnc1)C1CCCCN1S(=O)(=O)Cc1ccccc1 (some centres unmarked)")
"4.6 µM"
